PROPERTY_NAME: pIC50
Note on pIC50: it is the negative log10 of concentration, concentration in mol/L.

With Epidermal growth factor receptor (Homo sapiens, UniProt P00533) as the test system, `OCc1nc(C#Cc2cncnc2Nc2ccc(OCc3cccc(F)c3)c(Cl)c2)cs1` showed pIC50 of 7.12

Form field pIC50 for item CC(=O)Nc1cccc(C#Cc2cncnc2Nc2ccc(OCc3cccc(F)c3)c(Cl)c2)c1 [GW703087X] on Epidermal growth factor receptor (Homo sapiens, UniProt P00533): 7.92

The molecule `COC(=O)CCCC(=O)Nc1cccc(C#Cc2cncnc2Nc2ccc(OCc3cccc(F)c3)c(Cl)c2)c1` , tested on Epidermal growth factor receptor (Homo sapiens, UniProt P00533), showed pIC50 of 7.51

The value of pIC50 recorded for CC(=O)NCc1cccc(C#Cc2cncnc2Nc2ccc(OCc3cccc(F)c3)c(Cl)c2)c1 [GW807930X] when tested on Epidermal growth factor receptor (Homo sapiens, UniProt P00533) reads 7.22

Result for Nc1ccc(C#Cc2cncnc2Nc2ccc(OCc3cccc(F)c3)c(Cl)c2)cc1 [GW659893X] , tested on Epidermal growth factor receptor (Homo sapiens, UniProt P00533), pIC50: 7.52

Value (pIC50, Epidermal growth factor receptor (Homo sapiens, UniProt P00533)) for record Fc1cccc(COc2ccc(Nc3ncncc3C#Cc3ccccc3)cc2Cl)c1 [GW651576X] = 7.10

Entry CC(=O)Nc1cccc(C#Cc2cncnc2Nc2ccc(OCc3cccc(F)c3)c(Cl)c2)n1 [GW794726X] , tested on Epidermal growth factor receptor (Homo sapiens, UniProt P00533), has a reported pIC50 of 7.04

Known value: Epidermal growth factor receptor (Homo sapiens, UniProt P00533) pIC50 of the molecule `Fc1cccc(COc2ccc(Nc3ccncn3)cc2Cl)c1` equals 6.49

CNC(=O)c1cccc(C#Cc2cncnc2Nc2ccc(OCc3cccc(F)c3)c(Cl)c2)c1 [GW772405X] on Epidermal growth factor receptor (Homo sapiens, UniProt P00533) gives pIC50 = 7.10
